Test system: M. mycetomatis genome strain MM55
Experimental details: CLSI M38-A2 based in vitro susceptibility screening (XTT or resazurin), growth at fixed concentration
Format: cell-based, Madurella mycetomatis
Cond: Madurella mycetomatis, 25 uM, replicate C, MM55; read-out: Percentage survival at 25um, 25 uM C
Measurement kind: activity at 25 µM (%)
Quick note: give the figure in %, leave out the unit.

Considering `COc1ccc(OCc2ccc(COc3c(Cl)cccc3Cl)cc2)c(Cl)c1` , its activity at 25 µM with M. mycetomatis genome strain MM55 was recorded as 85.7

// compound `C[Si]1(C)CCN(Cc2cc(-c3ccc(Cl)cc3)n(-c3ccc(Cl)cc3)n2)CC1` , assay M. mycetomatis genome strain MM55, activity at 25 µM value: 60.2

Here `CN(O)C(=O)c1cc2c(CN3CCC[C@H]3C(N)=O)cn(Cc3ccc(F)cc3)c2cn1` was tested on M. mycetomatis genome strain MM55, and its activity at 25 µM came to 84

Measured activity at 25 µM (M. mycetomatis genome strain MM55), entry `Nc1nc(-c2ccccc2)nc2[nH]nc(Nc3ccc(C(F)(F)F)cc3)c12` : 80.3

====

So I've got a bunch of compounds here, and I need their activity at 100 µM values.
Tested on: M. mycetomatis genome strain MM55
Experimental details: CLSI M38-A2 based in vitro susceptibility screening (XTT or resazurin), growth at fixed concentration
Format: cell-based, Madurella mycetomatis
Cond: Madurella mycetomatis, 100 uM, replicate 1; read-out: Percentage survival at 100um, 100 uM A
Reply with the number, then its unit.

// compound CCCCCCCCC(CP(=O)(O)C(C)N)C(=O)O (stereo not shown) [MMV1582487] , assay M. mycetomatis genome strain MM55, activity at 100 µM value: 85.8%

M. mycetomatis genome strain MM55 assay, compound CC(=O)NC[C@H]1CN(c2ccc(N3CCSCC3)c(F)c2)C(=O)O1 [MMV688756] , recorded activity at 100 µM = 100%

Measured activity at 100 µM (M. mycetomatis genome strain MM55), entry CC1CCc2c(N3CCC(O)CC3)c(F)cc3c(=O)c(C(=O)O)cn1c23 (stereo not shown) [MMV637659] : 65.4%

The recorded activity at 100 µM with M. mycetomatis genome strain MM55 for NC[C@H]1OB(O)c2c(OCCCO)cccc21 [MMV1578566] was 93.8%

// compound CC(=N)N1CC[C@H](SC2=C(C(=O)O)N3C(=O)[C@@H]([C@@H](C)O)[C@H]3C2)C1 [MMV1582382] , assay M. mycetomatis genome strain MM55, activity at 100 µM value: 76.4%

Form field, activity at 100 µM with M. mycetomatis genome strain MM55, item Fc1ccc2c(/C=C/c3nnn[nH]3)c[nH]c2c1 [MMV1578563] : 96%

Hey, M. mycetomatis genome strain MM55 data for O=C(c1ccccc1)N1CCN(c2ccccc2NC(=O)C(Cl)(Cl)Cl)CC1 [MMV001014] : activity at 100 µM came out at 98.3%

# activity at 100 µM measured on M. mycetomatis genome strain MM55 for item C=C[C@]1(C)C[C@@H](OC(=O)CS[C@@H]2C[C@H]3CC[C@@H](C2)N3C)[C@]2(C)[C@H](C)CC[C@]3(CCC(=O)[C@H]32)[C@@H](C)[C@@H]1O [MMV1633674] = -3.26%

// activity at 100 µM (M. mycetomatis genome strain MM55) for O=C(Nc1ccc(F)cc1)c1nn(-c2ccccc2)c(=O)cc1Cl [MMV1578555] = 0.758%

Considering CCc1cc(Nc2cc(=O)n(CCN3CCN(C(=O)c4ccccc4)CC3)c(=O)[nH]2)ccc1C [MMV1634383] , its activity at 100 µM with M. mycetomatis genome strain MM55 was recorded as 93%

The reported activity at 100 µM value, M. mycetomatis genome strain MM55, for Cn1cc(NC(=O)c2cc(NC(=O)c3ccc(/C=C/c4cnc5ccccc5c4)cc3)cn2C)cc1C(=O)NCCN1CCOCC1 [MMV1634391] reads 61%

Entry CCc1ccc(C2CC(C(F)(F)F)n3ncc(C(=O)NCc4ccc(OC)cc4)c3N2)cc1 (stereo not shown) [MMV831201] : activity at 100 µM on M. mycetomatis genome strain MM55 = 62%

M. mycetomatis genome strain MM55 activity at 100 µM of Nc1cccc(-c2nc(N)nc(NC3Cc4ccccc4C3)n2)c1 [MMV1581555] is 81.1%

Entry CCc1cc(Cc2cnc(N)nc2N)cc2c1N(C)CCC2C (stereo not shown) [MMV1582490] : activity at 100 µM on M. mycetomatis genome strain MM55 = 63.4%

The observed activity at 100 µM for CCN(CC)S(=O)(=O)c1ccc(Cl)c(C(=O)Nc2sc3c(c2C#N)CCCC3)c1 [MMV1634384] when tested with M. mycetomatis genome strain MM55 stands at 89.4%

I looked up Cc1c[nH]c(=O)nc1NCc1ccccc1 [MMV1582489] and its activity at 100 µM for M. mycetomatis genome strain MM55 was 101%

Reading of activity at 100 µM for O=C1NC(=O)C(Br)=C1Br [MMV1578554] with M. mycetomatis genome strain MM55: -3.69%

Here Nc1nnc(-c2ccc(Cl)cc2)s1 [MMV046261] was tested on M. mycetomatis genome strain MM55, and its activity at 100 µM came to 62.5%

Note to self: activity at 100 µM of COc1cc(Cc2cc(N)nc(N)n2)cc(OC)c1OC [MMV1579846] with M. mycetomatis genome strain MM55 was 83.5%

The compound Nc1nc(-c2ccccc2)nc2c1ncn2[C@@H]1O[C@H](COS(=O)(=O)NC(=O)c2ccccc2O)[C@@H](O)[C@H]1O [MMV1582488] , when measured on M. mycetomatis genome strain MM55, yielded activity at 100 µM of 75.9%

Considering O=S(=O)(Nc1ccccc1)c1ccc(NC(=S)Nc2ccccc2)cc1 [MMV1578562] , its activity at 100 µM with M. mycetomatis genome strain MM55 was recorded as 96.1%

Considering O=C(NC12CC3CC(CC(C3)C1)C2)c1cc2ccccc2[nH]1 [MMV1578577] , its activity at 100 µM with M. mycetomatis genome strain MM55 was recorded as 59.6%

Lab entry: M. mycetomatis genome strain MM55 assay, compound C[N+]1(C)CCCC(OC(=O)C(O)(c2ccccc2)c2ccccc2)C1 (stereo not shown) [MMV002676] , activity at 100 µM = 85.5%

Response field activity at 100 µM (M. mycetomatis genome strain MM55) for item O=c1cc(NCCCN[C@@H]2CCOc3c(Br)cc(Br)cc32)[nH]c2ccsc12 [MMV1578884] : 93%

The reported activity at 100 µM value, M. mycetomatis genome strain MM55, for O=C(O)c1ccc(-c2ccc(O[C@H]3O[C@H](CO)[C@@H](O)[C@H](O)[C@@H]3O)cc2)cc1 [MMV1633970] reads 68.9%

Measured on M. mycetomatis genome strain MM55, O=C(Nc1nnc(-c2ccc(Cl)cc2)o1)c1ccc(F)cc1 [MMV1782140] has a documented activity at 100 µM of -0.102%

Record for CC(C)(C)c1cc(C(=O)/C(C#N)=N/Nc2cccc(Cl)c2)no1 [MMV1578571] under target or system M. mycetomatis genome strain MM55: activity at 100 µM reported as 4.87%

Summary line: O=[N+]([O-])c1cn(Cc2nc(O)nc(O)c2Br)cn1 [MMV1579777] , M. mycetomatis genome strain MM55, reported activity at 100 µM = 96.7%

Recorded activity at 100 µM for c1ccc(Cn2c(-c3ccccn3)nc3ccccc32)cc1 [MMV1578886] on M. mycetomatis genome strain MM55 was 12%

The reported M. mycetomatis genome strain MM55 activity at 100 µM of O=C1NC(=S)N/C1=C\c1cc(Br)cc(Br)c1O [MMV1578569] is 103%

Value sought: activity at 100 µM, system M. mycetomatis genome strain MM55, item CC[C@@H]1C(=O)OC[C@@H]1Cc1cncn1C [MMV002516] . Result: 82.4%

Record COc1c(F)c(F)cc2c(=O)c(C(=O)O)cn(C3CC3)c12 [MMV1480967] / M. mycetomatis genome strain MM55, activity at 100 µM recorded as 85.8%

Recorded activity at 100 µM for CC(C)Nc1ncnc2c1cnn2-c1ccc(Cl)cc1 [MMV108465] on M. mycetomatis genome strain MM55 was 0.471%

Fill in: M. mycetomatis genome strain MM55 activity at 100 µM for O=[N+]([O-])c1cn2c(n1)OC[C@@H](OCc1ccc(OC(F)(F)F)cc1)C2 [MMV688755] = 75%

Short answer on M. mycetomatis genome strain MM55 for Cc1cccc(CC(=O)N[C@H]2CCOC2=O)c1 [MMV1579782] , activity at 100 µM: 95.1%

Summary line: CCN(CC)CCn1c(=N)n(CC(O)COc2ccc(Cl)cc2Cl)c2ccccc21 (stereo not shown) [MMV000725] , M. mycetomatis genome strain MM55, reported activity at 100 µM = 4.59%

Entry CN(C)CCNC(=O)c1cccc2cccnc12 [MMV811071] , M. mycetomatis genome strain MM55 data, activity at 100 µM value: 79.4%
